Target: Lysine-specific demethylase 4C (Homo sapiens, UniProt Q9H3R0)
Sequence (Q9H3R0 whole entry, the tested form may be a part): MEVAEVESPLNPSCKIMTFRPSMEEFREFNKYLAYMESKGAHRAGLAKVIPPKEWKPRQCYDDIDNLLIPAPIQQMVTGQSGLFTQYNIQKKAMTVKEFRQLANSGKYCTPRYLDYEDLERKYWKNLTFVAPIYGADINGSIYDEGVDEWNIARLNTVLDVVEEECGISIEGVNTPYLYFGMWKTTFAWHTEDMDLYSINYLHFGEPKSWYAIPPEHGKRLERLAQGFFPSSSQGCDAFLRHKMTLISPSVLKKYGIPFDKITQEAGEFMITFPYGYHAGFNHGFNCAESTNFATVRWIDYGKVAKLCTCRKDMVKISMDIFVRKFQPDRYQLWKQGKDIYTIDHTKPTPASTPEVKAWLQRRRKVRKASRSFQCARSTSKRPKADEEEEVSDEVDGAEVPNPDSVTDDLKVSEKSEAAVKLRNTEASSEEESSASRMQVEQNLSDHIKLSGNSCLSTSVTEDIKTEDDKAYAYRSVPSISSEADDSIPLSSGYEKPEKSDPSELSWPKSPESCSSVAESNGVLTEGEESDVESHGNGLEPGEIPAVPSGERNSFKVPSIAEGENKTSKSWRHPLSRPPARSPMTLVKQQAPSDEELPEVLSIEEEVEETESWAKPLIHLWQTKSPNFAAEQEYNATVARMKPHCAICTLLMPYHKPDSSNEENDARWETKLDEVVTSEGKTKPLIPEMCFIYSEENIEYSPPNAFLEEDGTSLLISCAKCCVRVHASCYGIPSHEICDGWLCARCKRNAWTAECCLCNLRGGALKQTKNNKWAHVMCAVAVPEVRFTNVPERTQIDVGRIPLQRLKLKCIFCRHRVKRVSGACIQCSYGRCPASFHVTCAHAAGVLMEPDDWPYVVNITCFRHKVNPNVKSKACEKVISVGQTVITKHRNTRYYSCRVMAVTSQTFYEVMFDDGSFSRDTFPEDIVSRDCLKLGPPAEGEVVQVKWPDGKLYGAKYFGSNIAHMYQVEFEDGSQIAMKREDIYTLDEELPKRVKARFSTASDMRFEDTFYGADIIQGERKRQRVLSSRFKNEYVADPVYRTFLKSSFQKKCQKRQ
Experiment: Inhibition of N-terminal GST-tagged human KDM4C (2 to 372 residues) expressed in baculovirus-infected Sf9 cells measured by high-throughput mass spectrometry assay
Readout: Ki (µM)
Answer with a number only, understood to be in µM.

Give its Ki value. Item: `O=C(O)c1ccnc(-c2ccc[nH]2)c1` 0.031

---

Molecular target: UniProt O75164
Sequence (O75164 whole entry): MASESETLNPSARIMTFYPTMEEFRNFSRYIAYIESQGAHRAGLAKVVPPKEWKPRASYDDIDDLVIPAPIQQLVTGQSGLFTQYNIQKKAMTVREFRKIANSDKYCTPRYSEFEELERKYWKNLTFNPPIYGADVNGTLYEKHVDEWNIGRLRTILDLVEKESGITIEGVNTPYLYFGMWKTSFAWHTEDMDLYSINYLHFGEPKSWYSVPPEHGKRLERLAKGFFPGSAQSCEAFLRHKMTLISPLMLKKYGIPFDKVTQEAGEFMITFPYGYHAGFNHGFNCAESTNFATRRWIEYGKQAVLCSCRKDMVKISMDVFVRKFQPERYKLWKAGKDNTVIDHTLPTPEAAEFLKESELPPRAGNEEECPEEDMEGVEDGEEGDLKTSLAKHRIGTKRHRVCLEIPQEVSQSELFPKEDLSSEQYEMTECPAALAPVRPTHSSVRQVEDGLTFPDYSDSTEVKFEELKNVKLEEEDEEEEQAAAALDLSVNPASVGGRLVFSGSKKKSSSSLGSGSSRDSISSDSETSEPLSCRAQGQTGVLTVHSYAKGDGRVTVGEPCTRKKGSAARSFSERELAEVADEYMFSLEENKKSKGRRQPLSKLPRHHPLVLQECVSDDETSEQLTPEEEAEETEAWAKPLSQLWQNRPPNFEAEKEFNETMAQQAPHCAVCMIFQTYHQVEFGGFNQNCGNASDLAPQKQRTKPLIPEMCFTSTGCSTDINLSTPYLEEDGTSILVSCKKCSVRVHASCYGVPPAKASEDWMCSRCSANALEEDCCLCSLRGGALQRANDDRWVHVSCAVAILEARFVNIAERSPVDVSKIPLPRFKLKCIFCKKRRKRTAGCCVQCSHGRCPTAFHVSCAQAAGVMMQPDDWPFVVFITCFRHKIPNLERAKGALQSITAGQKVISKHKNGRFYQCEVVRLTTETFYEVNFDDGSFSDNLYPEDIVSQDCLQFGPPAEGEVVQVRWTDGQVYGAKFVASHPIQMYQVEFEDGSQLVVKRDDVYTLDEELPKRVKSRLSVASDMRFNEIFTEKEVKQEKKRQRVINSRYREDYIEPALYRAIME
Assay: Inhibition of KDM4A (unknown origin) using H3K9me3 as substrate and measured by LANCE TR-FRET assay
Readout: IC50 (nM)
Give the value in nM but do not write nM after it.

Please report the recorded IC50 for `CN(c1ccccc1)c1ccc2c(c1)CCC[C@H]2CNc1cnccc1C(=O)O` . 35

---

Biological target: Lysine-specific demethylase 4A (Homo sapiens, UniProt O75164)
Readout: IC50 (µM)
// units = µM; emit number, no label

Which value of IC50 has been reported for `COC(=O)Cc1cc(O)n(-c2nc3ccccc3[nH]2)n1` in the records? 4

---

Molecular target: Lysine-specific demethylase 4B (Homo sapiens, UniProt O94953)
Sequence (O94953 whole entry): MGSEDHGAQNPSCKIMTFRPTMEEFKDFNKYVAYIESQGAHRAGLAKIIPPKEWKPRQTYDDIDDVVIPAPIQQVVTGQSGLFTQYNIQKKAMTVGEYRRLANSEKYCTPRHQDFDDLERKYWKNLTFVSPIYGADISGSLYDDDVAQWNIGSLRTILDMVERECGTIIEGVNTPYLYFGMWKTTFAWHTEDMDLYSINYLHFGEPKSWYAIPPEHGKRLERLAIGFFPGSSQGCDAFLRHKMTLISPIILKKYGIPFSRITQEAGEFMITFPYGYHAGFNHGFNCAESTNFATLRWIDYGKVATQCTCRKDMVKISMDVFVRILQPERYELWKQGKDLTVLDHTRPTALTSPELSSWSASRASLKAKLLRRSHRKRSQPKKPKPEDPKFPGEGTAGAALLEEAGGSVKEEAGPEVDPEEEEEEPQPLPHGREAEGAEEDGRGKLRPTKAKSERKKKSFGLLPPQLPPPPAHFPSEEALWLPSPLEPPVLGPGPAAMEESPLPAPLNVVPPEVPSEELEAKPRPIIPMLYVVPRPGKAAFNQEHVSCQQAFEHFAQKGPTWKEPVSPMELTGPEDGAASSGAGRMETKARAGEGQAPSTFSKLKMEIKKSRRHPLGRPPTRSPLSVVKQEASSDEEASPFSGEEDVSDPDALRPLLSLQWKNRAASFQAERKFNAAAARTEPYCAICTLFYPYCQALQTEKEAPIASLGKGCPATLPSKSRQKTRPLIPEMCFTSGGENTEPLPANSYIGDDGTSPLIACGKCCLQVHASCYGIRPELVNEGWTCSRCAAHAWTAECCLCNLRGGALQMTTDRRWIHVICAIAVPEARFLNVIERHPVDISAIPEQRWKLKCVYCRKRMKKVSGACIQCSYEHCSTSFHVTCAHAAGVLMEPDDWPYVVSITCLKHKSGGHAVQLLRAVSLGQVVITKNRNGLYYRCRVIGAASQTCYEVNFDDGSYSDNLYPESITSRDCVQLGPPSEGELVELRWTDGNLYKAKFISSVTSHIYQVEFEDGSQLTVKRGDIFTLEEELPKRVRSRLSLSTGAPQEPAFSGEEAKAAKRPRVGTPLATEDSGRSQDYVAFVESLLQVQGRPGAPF
Experiment: Inhibition of KDM4B (unknown origin) measured by AlphaScreen assay
Measured pIC50 by item
Just the number, please; pIC50 means minus log10 of the concentration in mol/L.

Molecule: C=CCNC1=C2C[C@@H](C)C[C@H](OC)[C@H](O)[C@@H](C)/C=C(\C)[C@H](OC(N)=O)[C@@H](OC)/C=C\C=C(/C)C(=O)NC(=CC1=O)C2=O (stereo in doubt)
pIC50: 6.15

Alright, here's another molecule for you.
Need pIC50, item CO[C@H]1/C=C\C=C(/C)C(=O)NC2=CC(=O)C(NCCN(C)C)=C(C[C@@H](C)C[C@H](OC)[C@H](O)[C@@H](C)/C=C(\C)[C@@H]1OC(N)=O)C2=O (stereo in doubt) 6.15

---

Biological target: Lysine-specific demethylase 6B (Homo sapiens, UniProt O15054)
Sequence (O15054 whole entry): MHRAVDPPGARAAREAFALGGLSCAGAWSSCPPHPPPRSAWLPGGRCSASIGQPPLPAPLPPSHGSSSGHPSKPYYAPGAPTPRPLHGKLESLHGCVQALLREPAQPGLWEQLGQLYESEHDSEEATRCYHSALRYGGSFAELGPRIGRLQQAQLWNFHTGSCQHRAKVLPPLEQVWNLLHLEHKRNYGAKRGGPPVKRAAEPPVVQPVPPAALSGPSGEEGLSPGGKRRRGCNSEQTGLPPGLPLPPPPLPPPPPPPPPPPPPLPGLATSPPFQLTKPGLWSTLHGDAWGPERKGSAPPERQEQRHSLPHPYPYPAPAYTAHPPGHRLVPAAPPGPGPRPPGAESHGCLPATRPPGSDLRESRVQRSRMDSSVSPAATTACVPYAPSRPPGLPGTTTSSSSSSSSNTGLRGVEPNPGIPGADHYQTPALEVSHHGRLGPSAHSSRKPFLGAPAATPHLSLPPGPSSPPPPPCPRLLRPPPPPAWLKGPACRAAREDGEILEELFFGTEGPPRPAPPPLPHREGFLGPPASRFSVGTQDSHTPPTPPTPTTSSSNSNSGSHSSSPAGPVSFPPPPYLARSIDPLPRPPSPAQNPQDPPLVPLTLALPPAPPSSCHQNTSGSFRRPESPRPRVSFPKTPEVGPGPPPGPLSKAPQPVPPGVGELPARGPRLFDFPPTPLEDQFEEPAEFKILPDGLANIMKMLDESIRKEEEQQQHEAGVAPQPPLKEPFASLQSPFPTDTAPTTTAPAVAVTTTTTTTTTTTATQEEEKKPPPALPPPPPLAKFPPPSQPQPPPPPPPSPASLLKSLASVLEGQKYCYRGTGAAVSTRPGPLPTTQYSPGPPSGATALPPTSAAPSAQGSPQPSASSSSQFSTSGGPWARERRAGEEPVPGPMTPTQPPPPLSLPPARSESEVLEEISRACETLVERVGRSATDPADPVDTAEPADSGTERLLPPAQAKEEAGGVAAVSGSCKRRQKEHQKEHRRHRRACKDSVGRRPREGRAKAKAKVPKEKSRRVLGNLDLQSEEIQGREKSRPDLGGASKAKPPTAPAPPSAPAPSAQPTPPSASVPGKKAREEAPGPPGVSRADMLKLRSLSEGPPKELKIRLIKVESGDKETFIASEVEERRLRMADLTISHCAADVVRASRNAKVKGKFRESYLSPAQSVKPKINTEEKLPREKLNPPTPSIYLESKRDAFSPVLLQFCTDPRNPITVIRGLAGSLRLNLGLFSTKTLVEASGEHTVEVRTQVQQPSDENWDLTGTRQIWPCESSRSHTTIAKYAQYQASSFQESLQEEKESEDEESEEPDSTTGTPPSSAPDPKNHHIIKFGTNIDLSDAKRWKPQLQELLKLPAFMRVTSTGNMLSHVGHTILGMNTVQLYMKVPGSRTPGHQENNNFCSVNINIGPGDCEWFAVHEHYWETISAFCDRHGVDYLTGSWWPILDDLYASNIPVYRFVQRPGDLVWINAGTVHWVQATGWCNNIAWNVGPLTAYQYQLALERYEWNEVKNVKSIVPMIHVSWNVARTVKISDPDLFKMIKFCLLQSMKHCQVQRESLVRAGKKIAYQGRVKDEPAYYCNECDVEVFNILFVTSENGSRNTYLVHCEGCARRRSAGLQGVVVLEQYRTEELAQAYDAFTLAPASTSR
IC50 overview
A number alone suffices; assume nM.

Compound: C=CCNC1=C2C[C@@H](C)C[C@H](OC)[C@H](O)[C@@H](C)/C=C(\C)[C@H](OC(N)=O)[C@@H](OC)/C=C\C=C(/C)C(=O)NC(=CC1=O)C2=O (stereo in doubt)
Readout: IC50
Display unit: nM
Result number: 400

Recorded IC50 of CO[C@H]1/C=C\C=C(/C)C(=O)NC2=CC(=O)C(NCCN(C)C)=C(C[C@@H](C)C[C@H](OC)[C@H](O)[C@@H](C)/C=C(\C)[C@@H]1OC(N)=O)C2=O (stereo in doubt) , please. 400

---

Biological target: Lysine-specific demethylase 4E (Homo sapiens, UniProt B2RXH2)
Readout: IC50 (µM)
Quick reminder: number only, in µM, skip the unit.

Can you share its IC50? I mean this compound: CC(/C=C/C(=O)NO)=C\[C@@H](C)C(=O)c1ccc(N(C)C)cc1 [TRICHOSTATIN] 28.4

---

Readings of pEC50 for the listed molecules
Biological target: UniProtKB O75164
Assay: Inhibition of KDM4A in human KYSE-150 cells assessed as increase in H3K9me3 level
Type: cell-based, KYSE-150 cell line
# pEC50: negative log10 of molar concentration; output just the value

Solved entries:
Compound structure string: COC(=O)c1ccc(-n2nc(-c3ccccc3O)nc2-c2ccccc2O)cc1
pEC50: 5.00

Compound structure string: Oc1ccccc1-c1nc(-c2ccccc2O)n(-c2ccccc2)n1
pEC50: 5.48

Record request: pEC50 value, item `O=C(O)c1ccc(-n2nc(-c3ccccc3O)nc2-c2ccccc2O)cc1` 4.39

---

Biological target: Lysine-specific demethylase 4D (Homo sapiens, UniProt Q6B0I6)
Test: Inhibition of human KDM4D measured by AlphaLISA assay
Readout: IC50 (µM)
Respond numerically; units are µM and should not be typed.

What measured IC50 is associated with `O=C(O)c1cc(O)c(=O)c2c(O)c(O)cc(-c3ccccc3)c2c1` on Lysine-specific demethylase 4D (Homo sapiens, UniProt Q6B0I6)? 24.4

---

Reported IC50 by item:
Biological target: UniProt:Q9Y2K7
Sequence (Q9Y2K7 whole entry): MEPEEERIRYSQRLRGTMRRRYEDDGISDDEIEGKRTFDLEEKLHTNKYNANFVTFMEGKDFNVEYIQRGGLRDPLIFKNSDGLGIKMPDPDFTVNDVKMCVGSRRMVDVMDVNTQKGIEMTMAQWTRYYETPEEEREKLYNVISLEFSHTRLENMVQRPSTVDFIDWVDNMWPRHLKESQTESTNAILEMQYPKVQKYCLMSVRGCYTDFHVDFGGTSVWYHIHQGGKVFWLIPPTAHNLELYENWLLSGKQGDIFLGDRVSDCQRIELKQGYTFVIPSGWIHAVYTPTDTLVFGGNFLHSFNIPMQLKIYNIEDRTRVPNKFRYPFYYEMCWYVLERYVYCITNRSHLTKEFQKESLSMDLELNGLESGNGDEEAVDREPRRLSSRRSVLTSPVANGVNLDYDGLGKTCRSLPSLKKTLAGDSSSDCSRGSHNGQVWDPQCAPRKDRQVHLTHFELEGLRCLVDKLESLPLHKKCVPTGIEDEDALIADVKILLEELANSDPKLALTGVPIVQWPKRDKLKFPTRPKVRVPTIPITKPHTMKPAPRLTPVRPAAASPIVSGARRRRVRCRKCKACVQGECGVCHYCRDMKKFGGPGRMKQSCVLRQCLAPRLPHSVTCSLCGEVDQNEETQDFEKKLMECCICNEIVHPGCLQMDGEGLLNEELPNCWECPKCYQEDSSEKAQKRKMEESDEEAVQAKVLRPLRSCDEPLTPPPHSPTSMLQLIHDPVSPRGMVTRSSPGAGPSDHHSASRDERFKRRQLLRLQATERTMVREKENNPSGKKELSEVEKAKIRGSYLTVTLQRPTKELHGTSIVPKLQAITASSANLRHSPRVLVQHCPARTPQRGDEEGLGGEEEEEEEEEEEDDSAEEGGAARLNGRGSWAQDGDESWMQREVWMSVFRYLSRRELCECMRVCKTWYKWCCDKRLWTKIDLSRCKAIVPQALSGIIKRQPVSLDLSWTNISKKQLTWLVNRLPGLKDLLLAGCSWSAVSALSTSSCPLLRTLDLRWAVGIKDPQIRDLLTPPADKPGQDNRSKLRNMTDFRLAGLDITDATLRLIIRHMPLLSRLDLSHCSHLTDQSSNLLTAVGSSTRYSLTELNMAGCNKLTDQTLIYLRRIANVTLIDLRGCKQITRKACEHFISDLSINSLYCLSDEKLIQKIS
Assay: Inhibition of KDM2A in human MIA PaCa-2 cells assessed as induction of H3K36me2 measured by immunofluorescence assay
Numbers only here, please. The scale is nM.

Compound structure string: CCCCCC[n+]1ccccc1C=Cc1ccc(N(C)C)cc1
Tested target: UniProt:Q9Y2K7
Readout: IC50
Result number: 280

Give its IC50 value. Item: `CN(C)c1ccc(/C=C/c2cc[n+](Cc3ccc(F)cc3)cc2)cc1` 280

---

Molecular target: Lysine-specific demethylase 4C (Homo sapiens, UniProt Q9H3R0)
Experiment: Inhibition of human KDM4C (1 to 347 residues) catalytic domain measured formaldehyde dehydrogenase (FDH)-coupled fluorescence assay
Readout: IC50 (µM)
Supply the numeric figure in µM, leaving out any unit text.

Which IC50 reading was recorded for the compound `COC(=O)Cc1cc(O)n(-c2nc3ccccc3[nH]2)n1` ? 4

---

Molecular target: UniProt:Q6B0I6
Experiment: Inhibition of human KDM4D (1 to 378 residues) catalytic domain measured formaldehyde dehydrogenase (FDH)-coupled fluorescence assay
Readout: IC50
A complete answer gives the number followed by the unit.

Need IC50 of `COC(=O)Cc1cc(O)n(-c2nc3ccccc3[nH]2)n1` , thanks. 4 µM

---

Biological target: Lysine-specific demethylase 4D (Homo sapiens)
Sequence (Q6B0I6 whole entry): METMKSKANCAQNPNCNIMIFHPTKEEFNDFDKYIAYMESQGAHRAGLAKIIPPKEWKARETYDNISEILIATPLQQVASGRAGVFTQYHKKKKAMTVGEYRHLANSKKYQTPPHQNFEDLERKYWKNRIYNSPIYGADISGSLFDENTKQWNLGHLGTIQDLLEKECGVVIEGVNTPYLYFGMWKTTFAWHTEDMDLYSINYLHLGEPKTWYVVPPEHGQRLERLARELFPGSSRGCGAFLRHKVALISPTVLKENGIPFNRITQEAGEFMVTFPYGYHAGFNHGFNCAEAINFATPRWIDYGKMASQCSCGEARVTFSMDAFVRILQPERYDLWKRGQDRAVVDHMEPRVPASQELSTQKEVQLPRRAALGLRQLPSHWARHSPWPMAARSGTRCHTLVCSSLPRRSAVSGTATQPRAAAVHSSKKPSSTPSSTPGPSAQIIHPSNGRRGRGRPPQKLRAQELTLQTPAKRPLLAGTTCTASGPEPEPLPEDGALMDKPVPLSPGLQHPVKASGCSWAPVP
Test: Inhibition of KDM4D (unknown origin) using H3K9me3 as substrate and measured by LANCE TR-FRET assay
Readout: pIC50
Just so you know, pIC50 here is -log10 of the concentration in molar units; reply with that number alone.

Look up pIC50: `CN(c1ccccc1)c1ccc2c(c1)CCC[C@H]2CNc1cnccc1C(=O)O` 7.46

Source: ChEMBL document CHEMBL5137065
